tested on: HOP-18; test: NCI tumour cell line growth inhibition, 48 h
Calls of active or inactive are those of the source. No stated cut-off is given here; in the data, active = GI50 up to about 1.1 µM and inactive = higher.
Would you mind telling me the reported GI50 of each entry?

CC(=O)Oc1cc(OC(C)=O)c2c(c1)OC(c1ccc(OC(C)=O)c(OC(C)=O)c1)CC2=O (stereo not drawn)
30.1 µM (inactive)

Kindly give each listed record's GI50.
1. Cc1nc2c(sc(=S)n2-c2ccccc2)c2nc3ccccc3n12
2. COc1cc2ccnc(C#N)c2cc1OCc1ccccc1
3. CO[C@H]1ON=C(c2c(C)cc(C)cc2C)[C@@H]1C1(c2ccccc2)ON=C(c2c(C)cc(C)cc2C)O1 (stereo partly drawn)
4. C/C(=C\CBr)CCC(Br)C(C)(C)Cl (stereo not drawn)
5. [O-][S+]1[C@H](c2ccccc2)c2c(-c3ccccc3)sc(-c3ccccc3)c2[C@@H]1c1ccccc1 (stereo partly drawn)

> 100 µM (inactive)
> 100 µM (inactive)
> 100 µM (inactive)
> 100 µM (inactive)
11.4 µM (inactive)

Kindly give each listed record's GI50.
1. COc1ccc2c3c(c(C(=O)c4ccccc4)oc13)CCC2
2. COC(=O)/C=C(/C(=O)OC)C1(C)c2cc(C(=O)OC)c(C(=O)OC)c(N)c2C(=N)N1c1ccccc1 (stereo not drawn)

["> 100 µM (inactive)", "20.6 µM (inactive)"]

* * *

test system: MDA-N; assay: NCI tumour cell line growth inhibition, 48 h
The source made the active and inactive calls. Cut-off read from the data, not from the text of the source: active = GI50 up to about 1.1 µM and inactive = higher.
So I've got a bunch of compounds here, and I need their GI50 values.

Solved entries:
COc1ccc(/N=c2/[nH]c(N)c(C(=O)c3ccc(OC)cc3)s2)cc1
0.0301 µM (active)
O=S1(=O)c2ccccc2-c2nccc3ccnc1c23
7.87 µM (inactive)
Cc1cccc(Cl)c1NC(=O)/C=C/c1ccccc1
> 100 µM (inactive)

# batch: return GI50 for each of the 8 compounds below
1. N#Cc1c(-c2ccccc2)c(/N=N/c2ccc(Cl)cc2)c(=O)n2c1[nH]c1ccccc12
2. O=C1CCCC2=C1CC1=C(CCCC1=O)N2c1ccc(Cl)cc1
3. N#Cc1c(-c2ccccc2)c(/C=N/c2cccc(C(F)(F)F)c2)c(=O)n2c1[nH]c1ccccc12
4. C=CC(C)(O)/C=C/C=C(\C)C(CC1OC1(C)C)OC(=O)/C(C)=C\C (configuration not stated)
5. c1ccc(C[N+]23CN4CN(CN(C4)C2)C3)cc1
6. CC(C)(NC1=NCCO1)c1ccccc1
7. CNC(=O)C1OC(n2cnc3c(NCc4cccc(I)c4)nc(Cl)nc32)C(O)C1O (configuration not stated)
8. COc1cccc2[nH]c(-c3ccccn3)nc12

1. > 100 µM (inactive)
2. > 100 µM (inactive)
3. 28 µM (inactive)
4. > 100 µM (inactive)
5. 94.4 µM (inactive)
6. > 100 µM (inactive)
7. 20.7 µM (inactive)
8. > 100 µM (inactive)

* * *

Kindly state GI50 for each of the entries shown.
tested on: OVCAR-4; assay: NCI tumour cell line growth inhibition, 48 h
Activity calls are given as the source filed them. Rule as the data show it: active = GI50 up to about 1.1 µM and inactive = higher.

Field: example entries. Status: answers known.
c1ccc(C[N+]23CN4CN(CN(C4)C2)C3)cc1
36.5 µM (inactive)
COc1ccc(CCNC(=O)Cc2ccccc2CO)cc1OC
> 100 µM (inactive)
O=C(C(=O)c1cc(-c2ccccc2)nc2ccc3ccccc3c12)c1ccccc1
21.1 µM (inactive)
COC1/C=C\C=C(/C)C(=O)NC2=CC(=O)C(N)=C(CC(C)CC(OC)C(O)C(C)C=C(C)C1OC(N)=O)C2=O (stereo unspecified)
4.07 µM (inactive)
CC/C=C1\N=C(c2ccc(Cl)cc2)OC1=O
> 100 µM (inactive)

Please look at the following compound next.
Retrieve GI50 measured for N#CC(C#N)[C@@H]1CCC=C(Sc2ccccc2)[C@H]1Sc1ccccc1 and print it. 4.6 µM (inactive)

* * *

tested on: ACHN; assay: NCI tumour cell line growth inhibition, 48 h
Calls of active or inactive are those of the source. Rule as the data show it: active = GI50 up to about 1.1 µM and inactive = higher.
readout.label: GI50

Examples with their reported GI50 follow.
Clc1ccc(CN2CCCN(Cc3ccc(Cl)cc3)C2c2cc3ccccc3c3ccccc23)cc1
> 100 µM (inactive)
CN(C(=O)Cc1ccc(Cl)c(Cl)c1)[C@H]1CCCC[C@@H]1[N+]1(C)CCCC1
> 100 µM (inactive)
O=C(c1ccc(Cl)cc1)c1ccc(OCCSCCCCCCCCCCSCCOc2ccc(C(=O)c3ccc(Cl)cc3)cc2)cc1
> 100 µM (inactive)
O=C(Cn1c2c(c3ccccc31)CCCC2)N1CCCC1
> 100 µM (inactive)
COc1cc(O)c2c(=O)c3c(C)cccc3n(C)c2c1
> 10 µM (inactive)
COc1ccc(C2=NC(C)(C)CO2)cc1
> 100 µM (inactive)

Parameter requested: GI50. Apply to each item below.
1. N#Cc1c(-c2ccccc2)c(/N=N/c2ccc(Cl)cc2)c(=O)n2c1[nH]c1ccccc12
2. COc1ccc2cc(NC(=O)Nn3cnnc3)ccc2c1
3. Nc1nc(N)c(CCCCc2ccccc2)c(/C=C/c2ccc([N+](=O)[O-])cc2)n1
4. CCOc1cc(C(c2c(O)c3ccccc3oc2=O)c2c(O)c3ccccc3oc2=O)ccc1OC

1: > 100 µM (inactive); 2: > 100 µM (inactive); 3: 3.4 µM (inactive); 4: 18 µM (inactive)

* * *

system: HCT-116; assay: NCI tumour cell line growth inhibition, 48 h
Active and inactive are the calls of the source. Cut-off read from the data, not from the text of the source: active = GI50 up to about 1.1 µM and inactive = higher.
Task for the reader: assign each of the following compounds its reported GI50.

O=C1CCCC2=C1CC1=C(CCCC1=O)N2c1ccc(Cl)cc1
> 100 µM (inactive)
COC(=O)[C@H](C)[C@@H]1CC[C@](C)(CCC2=C(C)CCCC2(C)C)OO1
> 25 µM (inactive)
[O-][N+]1=C(c2ccccc2)/C(=C2/C(c3ccccc3)=[N+]([O-])c3ccccc32)Cc2ccccc21
17.1 µM (inactive)

Record GI50 for all entries; do not skip any.
1. CCOc1ccc2c(c1)[n+]([O-])c(-c1ccc([N+](=O)[O-])cc1)c(N)[n+]2[O-]
2. O=C1Oc2ccccc2C(=O)/C1=C/N1C(=O)N/C(=C\c2ccccc2O)C1=O
3. CC1=NNC(=O)C1C1CC(c2c[nH]c3ccccc23)=NN(C(N)=O)C1=O (stereo unspecified)
4. Cc1cccc(CNNC(=O)c2cc[n+]([BH2-]C#N)cc2)c1
5. N/C(=N\O)N/N=C/c1ccc(C(F)(F)F)cc1
6. CCCCCCNCCCNc1c2cc(OC)ccc2nc2cccc([N+](=O)[O-])c12
7. CC12Cc3cc4c(cc3C1(c1ccc([N+](=O)[O-])cc1)OCCO2)OCO4 (stereo unspecified)

1. 62.2 µM (inactive)
2. 36.6 µM (inactive)
3. 83.2 µM (inactive)
4. 23.3 µM (inactive)
5. 32.9 µM (inactive)
6. 0.036 µM (active)
7. 65.3 µM (inactive)

// batch mode: one GI50 value per listed entry
1. O=C1C=C(N2CCCC2)C=C(N2CCCC2)C1
2. COC1/C=C\C=C(/C)C(=O)NC2=CC(=O)C(N)=C(CC(C)CC(OC)C(O)C(C)C=C(C)C1OC(N)=O)C2=O (stereo unspecified)
3. O=C(C(=O)c1cc(-c2ccccc2)nc2ccc3ccccc3c12)c1ccccc1

1. > 100 µM (inactive)
2. 0.0233 µM (active)
3. 10.6 µM (inactive)

List the reported GI50 of each compound below.
1. O=c1c2cccnc2oc2c(Cl)cc(-c3nnn[nH]3)cc12
2. CC1(C)OC(=O)N(c2ccccc2)C12C=Cc1cc([N+](=O)[O-])ccc1O2 (stereo unspecified)

1. > 100 µM (inactive)
2. 33.3 µM (inactive)

Hi team, please reply with GI50 for each item in this list.
1. COc1ccc(/N=c2/[nH]c(N)c(C(=O)c3ccc(OC)cc3)s2)cc1
2. C=CCC1(CN(C)C)CC/C(=C\c2ccc(OC)cc2)C1=O (stereo unspecified)

["0.365 µM (active)", "61.5 µM (inactive)"]

* * *

test system: CAKI-1; experiment: NCI tumour cell line growth inhibition, 48 h
Calls of active or inactive are those of the source. Rule as the data show it: active = GI50 up to about 1.1 µM and inactive = higher.
Pick one and only one: 1.0 (active), 0.0 (inactive)

[O-][N+]1=C(c2ccccc2)/C(=C2/C(c3ccccc3)=[N+]([O-])c3ccccc32)Cc2ccccc21
0.0
COc1ccccc1C1c2cc3c(cc2OC(N2CCCC2)C1C)OCO3 (stereo not given)
0.0
Cn1c(=O)c2nc(N3CCCCC3)cnc2n(C)c1=O
0.0

For CCN(CC)P1(=S)Oc2ccc3ccccc3c2-c2c(ccc3ccccc23)O1 , what call appears in the results of this test? 0.0

What did this assay record as the result for C=CCC1C(=O)C(C(=O)OC)N2CCc3c([nH]c4ccccc34)C12 (stereo not given) ? 0.0

# outcome recorded in this test, key = CC1(C)CC[C@]2(C(=O)O)CC[C@]3(C)C(=CC[C@@H]4[C@@]5(C)CC[C@@H]6OC(C)(C)OC[C@@]6(C)[C@@H]5CC[C@]43C)[C@H]2C1 0.0

What did this assay record as the result for C/C(=C\CBr)CCC(Br)C(C)(C)Cl (stereo not given) ? 0.0

Which outcome was assigned to Cn1c(-c2c(C3=CC(=O)N(c4ccccc4)C3=O)c3ccccc3n2C)cc2ccccc21 in this test? 0.0

Record request — test call for O=C(c1ccc(Cl)cc1)c1ccc(OCCSCCCCCCCCCCSCCOc2ccc(C(=O)c3ccc(Cl)cc3)cc2)cc1 0.0

Test call for this molecule, please: S=C(N/N=C\C=N/NC(=S)N1CCCCCC1)N1CCCCCC1 0.0
